Sourced from patent US6756229B1

System: CYP2B6 (Homo sapiens, UniProt P20813)
Construct: expressed in transfected cells
Sequence (P20813 1-491): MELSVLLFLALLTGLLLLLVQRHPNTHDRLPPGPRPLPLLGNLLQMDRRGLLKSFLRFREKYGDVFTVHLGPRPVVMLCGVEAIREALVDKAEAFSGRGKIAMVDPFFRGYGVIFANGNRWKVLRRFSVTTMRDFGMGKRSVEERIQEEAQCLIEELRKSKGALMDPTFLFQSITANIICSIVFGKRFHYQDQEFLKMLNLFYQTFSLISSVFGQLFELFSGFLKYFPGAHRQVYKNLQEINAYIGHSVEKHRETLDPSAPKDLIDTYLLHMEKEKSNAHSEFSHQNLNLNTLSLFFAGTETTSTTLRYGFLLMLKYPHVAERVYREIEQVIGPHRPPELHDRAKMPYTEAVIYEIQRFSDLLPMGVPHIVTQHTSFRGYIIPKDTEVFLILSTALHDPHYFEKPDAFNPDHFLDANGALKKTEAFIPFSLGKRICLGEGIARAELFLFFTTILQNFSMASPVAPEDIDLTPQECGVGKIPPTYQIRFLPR
Experiment Summary: Kinetic analysis, 7-ethoxycoumarin O-deethylase activity in Hepc/2B6.68
Assay type: cell-based
Condition Info: human, Hepc/2B6.68 cells expressing CYP2B6, Lineweaver-Burk plot
Observed Property: Km (µM)
Number only, in µM; omit the unit.

Missing value: Km, CYP2B6 (Homo sapiens, UniProt P20813), entry CCOc1ccc2ccc(=O)oc2c1 [7-ethoxycoumarin] . Fill in?
81
